Entry source: the supplement of paper PMC9112550

- System: Escherichia coli TOP10
- METHOD NOTES: shrunken log2 fold change of peptide-encoding DNA abundance (4.5 h post-induction vs induction); higher = less antimicrobial activity (less host growth inhibition)
- MEASUREMENT CONTEXT: time post-induction: 4.5 h; library: site-saturation at positions 5, 18, 19, 20
METRIC: shrunken log2 fold change

QUERY SEQUENCE	READING
RRIRARPPRLPRPRPRPPFMPRP	0.376
RRIRERPPRLPRPRPRPFCCPRP	-0.0198
RRIRWRPPRLPRPRPRPKWKPRP	0.401
RRIRQRPPRLPRPRPRPDRSPRP	0.0153
RRIRTRPPRLPRPRPRPRGMPRP	0.24
RRIRARPPRLPRPRPRPSENPRP	0.182
RRIRERPPRLPRPRPRPDWGPRP	-0.00783
RRIRSRPPRLPRPRPRPNGLPRP	-0.0247
RRIRNRPPRLPRPRPRPMTKPRP	0.116
RRIRRRPPRLPRPRPRPSTDPRP	-0.14
RRIRPRPPRLPRPRPRPKDSPRP	-0.157
RRIRRRPPRLPRPRPRPPWKPRP	0.0487
RRIRNRPPRLPRPRPRPKMQPRP	-0.0708
RRIRMRPPRLPRPRPRPQQEPRP	0.137
RRIRERPPRLPRPRPRPLSHPRP	-0.314
RRIRIRPPRLPRPRPRPCMKPRP	-1.01
RRIRHRPPRLPRPRPRPRRCPRP	0.166
RRIRCRPPRLPRPRPRPISKPRP	-0.37
RRIRTRPPRLPRPRPRPFLYPRP	-0.786
RRIRKRPPRLPRPRPRPMPQPRP	0.0873
RRIRFRPPRLPRPRPRPCKNPRP	0.0492
RRIRLRPPRLPRPRPRPSNCPRP	-0.581
RRIRARPPRLPRPRPRPSMDPRP	1.4
RRIRRRPPRLPRPRPRPMLHPRP	0.385
RRIRLRPPRLPRPRPRPSKPPRP	-0.0779
RRIRFRPPRLPRPRPRPSTWPRP	-0.000934
RRIRWRPPRLPRPRPRPFHTPRP	-0.171
RRIRTRPPRLPRPRPRPAWYPRP	-0.172
RRIRKRPPRLPRPRPRPARTPRP	0.476
RRIRPRPPRLPRPRPRPAMCPRP	-0.0389
RRIRHRPPRLPRPRPRPGWSPRP	0.0123
RRIRLRPPRLPRPRPRPCYQPRP	-0.476
RRIRMRPPRLPRPRPRPGPGPRP	2.09
RRIRWRPPRLPRPRPRPWGNPRP	0.149
RRIRYRPPRLPRPRPRPEYMPRP	-0.271
RRIRRRPPRLPRPRPRPIMDPRP	0.01
RRIRWRPPRLPRPRPRPNTKPRP	-0.187
RRIRCRPPRLPRPRPRPIPCPRP	-0.489
RRIRERPPRLPRPRPRPACHPRP	-0.0945
RRIRIRPPRLPRPRPRPPDDPRP	0.494
RRIRHRPPRLPRPRPRPSASPRP	-0.0379

----------
- Test system: Escherichia coli TOP10
- METHOD NOTES: shrunken log2 fold change of peptide-encoding DNA abundance (4.5 h post-induction vs induction); higher = less antimicrobial activity (less host growth inhibition)
- MEASUREMENT CONTEXT: time post-induction: 4.5 h; library: site-saturation at positions 5, 18, 19, 20
Attribute: shrunken log2 fold change

QUERY SEQUENCE	TARGET UNDER TEST	shrunken log2 fold change
RRIRRRPPRLPRPRPRPVVPPRP	Escherichia coli TOP10	0.47
RRIRGRPPRLPRPRPRPNSYPRP	Escherichia coli TOP10	-0.0855
RRIRKRPPRLPRPRPRPEEEPRP	Escherichia coli TOP10	0.0391
RRIRCRPPRLPRPRPRPDTNPRP	Escherichia coli TOP10	-0.285
RRIRTRPPRLPRPRPRPRFEPRP	Escherichia coli TOP10	0.0138
RRIRFRPPRLPRPRPRPKIMPRP	Escherichia coli TOP10	-0.624
RRIRARPPRLPRPRPRPHKCPRP	Escherichia coli TOP10	-0.205
RRIRHRPPRLPRPRPRPVQVPRP	Escherichia coli TOP10	-0.162
RRIRNRPPRLPRPRPRPVILPRP	Escherichia coli TOP10	-0.61
RRIRWRPPRLPRPRPRPIWSPRP	Escherichia coli TOP10	0.629
RRIRHRPPRLPRPRPRPSMHPRP	Escherichia coli TOP10	-0.705
RRIRPRPPRLPRPRPRPMVYPRP	Escherichia coli TOP10	-0.228
RRIRQRPPRLPRPRPRPFADPRP	Escherichia coli TOP10	-0.0142
RRIRMRPPRLPRPRPRPIVGPRP	Escherichia coli TOP10	0.108
RRIRKRPPRLPRPRPRPIQPPRP	Escherichia coli TOP10	-0.00952
RRIRVRPPRLPRPRPRPGQFPRP	Escherichia coli TOP10	-0.156
RRIRYRPPRLPRPRPRPFAPPRP	Escherichia coli TOP10	-0.386
RRIRHRPPRLPRPRPRPPWVPRP	Escherichia coli TOP10	-0.101
RRIRTRPPRLPRPRPRPWPRPRP	Escherichia coli TOP10	0.116
RRIRHRPPRLPRPRPRPLRQPRP	Escherichia coli TOP10	-0.0125
RRIRLRPPRLPRPRPRPEDNPRP	Escherichia coli TOP10	0.0216
RRIRFRPPRLPRPRPRPNVMPRP	Escherichia coli TOP10	-0.166
RRIRIRPPRLPRPRPRPKACPRP	Escherichia coli TOP10	0.0544
RRIRERPPRLPRPRPRPFPNPRP	Escherichia coli TOP10	-0.165
RRIRHRPPRLPRPRPRPFFGPRP	Escherichia coli TOP10	-0.0142
RRIRHRPPRLPRPRPRPFANPRP	Escherichia coli TOP10	-0.483
RRIRARPPRLPRPRPRPRMLPRP	Escherichia coli TOP10	0.395
RRIRFRPPRLPRPRPRPVPNPRP	Escherichia coli TOP10	-0.0743
RRIRVRPPRLPRPRPRPTKLPRP	Escherichia coli TOP10	-0.121
RRIRWRPPRLPRPRPRPVKKPRP	Escherichia coli TOP10	0.29
RRIRKRPPRLPRPRPRPLNWPRP	Escherichia coli TOP10	0.0951
RRIRGRPPRLPRPRPRPYPMPRP	Escherichia coli TOP10	-0.142
RRIRWRPPRLPRPRPRPHCNPRP	Escherichia coli TOP10	-0.465
RRIRLRPPRLPRPRPRPQFLPRP	Escherichia coli TOP10	-0.0896
RRIRGRPPRLPRPRPRPFQWPRP	Escherichia coli TOP10	-0.0859
RRIRWRPPRLPRPRPRPSDSPRP	Escherichia coli TOP10	-0.0671
RRIRRRPPRLPRPRPRPVIQPRP	Escherichia coli TOP10	0.177
RRIRIRPPRLPRPRPRPTQYPRP	Escherichia coli TOP10	-0.616
RRIRNRPPRLPRPRPRPCMEPRP	Escherichia coli TOP10	-0.206
RRIRVRPPRLPRPRPRPRTQPRP	Escherichia coli TOP10	0.0785
RRIRYRPPRLPRPRPRPEMPPRP	Escherichia coli TOP10	-0.0307
RRIRPRPPRLPRPRPRPMTLPRP	Escherichia coli TOP10	-0.189
RRIRIRPPRLPRPRPRPVSIPRP	Escherichia coli TOP10	-0.624
RRIRIRPPRLPRPRPRPDWHPRP	Escherichia coli TOP10	-0.882
RRIRIRPPRLPRPRPRPNTIPRP	Escherichia coli TOP10	-0.355
RRIRFRPPRLPRPRPRPYNNPRP	Escherichia coli TOP10	-1.15
RRIRFRPPRLPRPRPRPPLGPRP	Escherichia coli TOP10	1.33

----------
// values below are reported shrunken log2 fold change
- Test system: Escherichia coli TOP10;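 further: peptides expressed intracellularly from a pBAD plasmid library in pooled LB shake-flask culture, induced with 0.3% L-arabinose, DNA abundance read by NGS, three biological replicates, DESeq2 with apeglm shrinkage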
- METHOD NOTES: shrunken log2 fold change of peptide-encoding DNA abundance (4.5 h post-induction vs induction); higher = less antimicrobial activity (less host growth inhibition)
- MEASUREMENT CONTEXT: time post-induction: 4.5 h; library: site-saturation at positions 5, 18, 19, 20

QUERY SEQUENCE	shrunken log2 fold change
RRIRRRPPRLPRPRPRPEQYPRP	0.17
RRIRARPPRLPRPRPRPFRVPRP	-0.19
RRIRSRPPRLPRPRPRPMRCPRP	0.361
RRIRGRPPRLPRPRPRPDAEPRP	3.37
RRIRCRPPRLPRPRPRPAPPPRP	0.743
RRIRFRPPRLPRPRPRPNRPPRP	-0.0705
RRIRNRPPRLPRPRPRPLPHPRP	-0.387
RRIRTRPPRLPRPRPRPDFAPRP	0.176
RRIRHRPPRLPRPRPRPKKGPRP	-0.0679
RRIRDRPPRLPRPRPRPAGGPRP	1.11
RRIRGRPPRLPRPRPRPFLCPRP	0.231
RRIRSRPPRLPRPRPRPWQHPRP	0.14
RRIRKRPPRLPRPRPRPNFWPRP	-0.152
RRIRIRPPRLPRPRPRPIFSPRP	-0.181
RRIRRRPPRLPRPRPRPGENPRP	0.066
RRIRMRPPRLPRPRPRPWDPPRP	0.287
RRIRERPPRLPRPRPRPVGLPRP	0.147
RRIRQRPPRLPRPRPRPICDPRP	-0.0181
RRIRVRPPRLPRPRPRPTEAPRP	0.0175
RRIRARPPRLPRPRPRPNTLPRP	-0.202
RRIRCRPPRLPRPRPRPDHGPRP	-0.234
RRIRCRPPRLPRPRPRPAMRPRP	0.509
RRIRERPPRLPRPRPRPYAFPRP	-0.961
RRIRHRPPRLPRPRPRPYLRPRP	-0.173
RRIRNRPPRLPRPRPRPGLDPRP	0.00266
RRIRRRPPRLPRPRPRPDSQPRP	0.157
